target: Neuronal acetylcholine receptor; alpha3/beta2 (Rattus norvegicus, UniProt P04757+P12390); assay: Inhibition of rat Nicotinic acetylcholine receptor alpha3-beta2 expressed in Xenopus Oocytes
Sequence (P04757 whole entry): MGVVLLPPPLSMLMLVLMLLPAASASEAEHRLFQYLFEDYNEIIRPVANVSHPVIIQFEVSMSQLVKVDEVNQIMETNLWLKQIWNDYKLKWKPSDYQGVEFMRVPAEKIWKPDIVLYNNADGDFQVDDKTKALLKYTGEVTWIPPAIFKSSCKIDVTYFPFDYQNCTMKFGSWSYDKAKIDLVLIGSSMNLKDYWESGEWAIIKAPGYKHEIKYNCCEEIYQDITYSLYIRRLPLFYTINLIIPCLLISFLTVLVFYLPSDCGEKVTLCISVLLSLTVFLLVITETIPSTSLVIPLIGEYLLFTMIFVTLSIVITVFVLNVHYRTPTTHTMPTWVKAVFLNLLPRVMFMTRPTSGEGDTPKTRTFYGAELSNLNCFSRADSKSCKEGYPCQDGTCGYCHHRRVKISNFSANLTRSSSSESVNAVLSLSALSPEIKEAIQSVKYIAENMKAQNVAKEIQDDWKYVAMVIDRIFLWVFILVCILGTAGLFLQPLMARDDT
Sequence (P12390 whole entry): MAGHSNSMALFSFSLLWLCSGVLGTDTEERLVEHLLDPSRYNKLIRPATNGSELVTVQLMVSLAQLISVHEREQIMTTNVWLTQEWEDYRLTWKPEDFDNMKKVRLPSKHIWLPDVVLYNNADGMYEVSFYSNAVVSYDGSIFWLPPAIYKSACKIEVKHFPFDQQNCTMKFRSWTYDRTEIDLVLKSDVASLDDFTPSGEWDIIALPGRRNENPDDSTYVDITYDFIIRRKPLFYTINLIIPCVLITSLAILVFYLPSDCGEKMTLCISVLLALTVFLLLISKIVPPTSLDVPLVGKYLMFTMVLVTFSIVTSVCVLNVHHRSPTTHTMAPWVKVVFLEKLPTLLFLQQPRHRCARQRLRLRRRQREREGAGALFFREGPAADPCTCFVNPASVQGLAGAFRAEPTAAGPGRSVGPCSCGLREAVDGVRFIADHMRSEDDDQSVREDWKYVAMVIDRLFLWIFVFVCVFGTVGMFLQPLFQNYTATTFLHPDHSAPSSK
pIC50: −log10 of the molar value.
In this section we review reported pIC50 values for a set of compounds.

{"ENTRY_SMILES": "C[C@H](NC(=O)[C@H](C)NC(=O)[C@H](CS)NC(=O)[C@H](C)NC(=O)[C@H]1CCCN1C(=O)[C@H](Cc1c[nH]cn1)NC(=O)[C@H](CO)NC(=O)[C@H](CS)NC(=O)[C@H](CS)NC(=O)CNC(=O)CNC(=O)CN)C(=O)N[C@@H](CC(N)=O)C(=O)N[C@@H](CC(N)=O)C(=O)N[C@@H](CCC(N)=O)C(=O)N[C@@H](CC(=O)O)C(=O)N[C@@H](Cc1ccc(O)cc1)C(=O)N[C@@H](CS)C(N)=O", "pIC50": 9.70}
{"ENTRY_SMILES": "C[C@H](NC(=O)[C@H](C)NC(=O)[C@H](CS)NC(=O)[C@H](C)NC(=O)[C@H]1CCCN1C(=O)[C@H](Cc1cnc[nH]1)NC(=O)[C@H](CO)NC(=O)[C@H](CS)NC(=O)[C@@H](N)CS)C(=O)N[C@@H](CC(N)=O)C(=O)N[C@@H](CC(N)=O)C(=O)N[C@@H](CCC(N)=O)C(=O)N[C@@H](CC(=O)O)C(=O)N[C@@H](Cc1ccc(O)cc1)C(=O)N[C@@H](CS)C(N)=O", "pIC50": 8.23}
{"ENTRY_SMILES": "C[C@H](NC(=O)[C@H](C)NC(=O)[C@H](CS)NC(=O)[C@H](C)NC(=O)[C@H]1CCCN1C(=O)[C@H](Cc1cnc[nH]1)NC(=O)[C@H](CO)NC(=O)[C@H](CS)NC(=O)[C@H](CS)NC(=O)CNC(=O)CN)C(=O)N[C@@H](CC(N)=O)C(=O)N[C@@H](CC(N)=O)C(=O)N[C@@H](CCC(N)=O)C(=O)N[C@@H](CC(=O)O)C(=O)N[C@@H](Cc1ccc(O)cc1)C(=O)N[C@@H](CS)C(=O)O", "pIC50": 9.27}

====

In this section we review reported IC50 values for a set of compounds.
target: Neuronal acetylcholine receptor; alpha3/beta2 (Rattus norvegicus, UniProt P04757+P12390); experiment: Inhibition of rat Nicotinic acetylcholine receptor alpha3-beta2 expressed in Xenopus Oocytes

{"ENTRY_SMILES": "C[C@H](NC(=O)[C@H](CS)NC(=O)[C@H](C)NC(=O)[C@H]1CCCN1C(=O)[C@H](CC1=CNCN1)NC(=O)[C@H](CO)NC(=O)[C@H](CS)NC(=O)[C@H](CS)NC(=O)CN)C(=O)N[C@@H](CC(N)=O)C(=O)N[C@@H](CC(N)=O)C(=O)N[C@@H](CCC(N)=O)C(=O)N[C@@H](CC(=O)O)C(=O)N[C@@H](Cc1ccc(O)cc1)C(=O)N[C@@H](CS)C(N)=O", "IC50": "0.17 nM"}
{"ENTRY_SMILES": "C[C@H](NC(=O)[C@H](C)NC(=O)[C@H](CS)NC(=O)[C@H](C)NC(=O)[C@H]1CCCN1C(=O)[C@H](Cc1cnc[nH]1)NC(=O)[C@H](CO)NC(=O)[C@H](CS)NC(=O)[C@H](CS)NC(=O)CNC(=O)CN)C(=O)N[C@@H](CC(N)=O)C(=O)N[C@@H](CC(N)=O)C(=O)N[C@@H](CCC(N)=O)C(=O)N[C@@H](CC(=O)O)C(=O)N[C@@H](Cc1ccc(OS(=O)(=O)O)cc1)C(=O)N[C@@H](CS)C(N)=O", "IC50": "0.64 nM"}
{"ENTRY_SMILES": "CC(C)C[C@H](NC(=O)[C@H](CC(N)=O)NC(=O)[C@H](CO)NC(=O)[C@H](Cc1cnc[nH]1)NC(=O)[C@H](CCC(=O)O)NC(=O)[C@H](CC(C)C)NC(=O)[C@H](Cc1cnc[nH]1)NC(=O)[C@H](CS)NC(=O)[C@@H](NC(=O)[C@@H]1CCCN1C(=O)[C@H](CC(N)=O)NC(=O)[C@H](CO)NC(=O)[C@H](CS)NC(=O)[C@H](CS)NC(=O)CN)C(C)C)C(=O)N[C@@H](CS)C(N)=O", "IC50": "0.5 nM"}

====

biological target: Neuronal acetylcholine receptor; alpha3/beta2 (Rattus norvegicus, UniProt P04757+P12390); assay: Inhibition of rat Nicotinic acetylcholine receptor alpha3-beta2 expressed in Xenopus Oocytes
ASSAY_METRIC: IC50

{"ENTRY_SMILES": "CC[C@H](C)[C@H](NC(=O)[C@H](Cc1c[nH]cn1)NC(=O)[C@H](CCC(N)=O)NC(=O)[C@H](CC(N)=O)NC(=O)[C@H](CC(N)=O)NC(=O)CNC(=O)[C@H](C)NC(=O)[C@H](CS)NC(=O)[C@H](C)NC(=O)[C@@H]1CCCN1C(=O)[C@H](Cc1c[nH]cn1)NC(=O)[C@H](CO)NC(=O)[C@H](CS)NC(=O)[C@H](CS)NC(=O)CN)C(=O)N[C@@H](CS)C(N)=O", "ASSAY_SYSTEM": "Neuronal acetylcholine receptor; alpha3/beta2 (Rattus norvegicus, UniProt P04757+P12390)", "READOUT_VALUE": "1.1 nM"}
